Target: T1, human CD4 on cells (SKW3 cells; human PBMCs) (human, UniProt P01730 26-458)
T1 construct: whole, on cells; The SKW3 CD4 knockout cells served as the negative cell line; also called hCD4
Assay: FACS primary screen, non-clonal supernatant; SKW3 vs SKW3 CD4 KO cells, anti-human Kappa FITC detection
Outcome Measure: SKW3 WT vs KO, anti-hKappa-FITC (ratio)
Give bare numbers, in ratio.

Dear colleague, please send me the reported SKW3 WT vs KO, anti-hKappa-FITC (ratio) for 75110_10K21A (antibody, V domains shown, Tested as non-clonal hybridoma supernatant from AlivaMab Mouse Kappa mice, detected with anti-mouse Fc and anti-human Kappa) VH: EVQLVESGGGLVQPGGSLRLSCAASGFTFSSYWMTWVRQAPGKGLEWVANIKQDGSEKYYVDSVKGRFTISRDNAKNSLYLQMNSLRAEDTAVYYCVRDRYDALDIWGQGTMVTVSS VL: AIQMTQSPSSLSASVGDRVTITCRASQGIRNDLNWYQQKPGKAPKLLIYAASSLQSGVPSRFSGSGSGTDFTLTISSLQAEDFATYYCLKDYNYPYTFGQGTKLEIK when you can.
1.7
